System: SF-268 CNS
experiment-notes: NCI-60 one-dose screen, 48 h (100 = growth as untreated, 0 = no growth, -100 = all killed)
setup-conditions: 10 µM
About 83,000 compounds went through this panel and 20% of them were active in at least one assay; those are over-represented in the sample as a whole.
outcome-measure: growth (%)
// note: answer is a bare numeric in %

IN: Please list growth recorded for the compound `c1ccc(CCCCc2ccc3ccccc3n2)cc1`
OUT: 99

IN: Please list growth recorded for the compound `C=CCn1c(SCC(=O)Nc2ccc(C(=O)/C=C/c3cc(OC)c(OC)c(OC)c3)cc2)nnc1-c1cc(-c2ccc(Cl)cc2)nc2ccccc12`
OUT: 90.9

IN: Please list growth recorded for the compound `COc1cc(-c2nn(-c3ccc(NC(=O)NCCNS(=O)(=O)c4ccc(F)cc4)cc3)cc2-c2ccncc2)ccc1Cl`
OUT: 7.56

IN: Please list growth recorded for the compound `COc1ccc2nc(-c3ccc(Cl)cc3)cc(-c3nnc(SC/C(=N\O)c4ccccc4)n3-c3ccccc3)c2c1`
OUT: 83.5

IN: Please list growth recorded for the compound `O=C(CCNC(=O)c1nc(-c2ccccc2)n(-c2ccc(Cl)cc2)n1)NO`
OUT: 93.9

IN: Please list growth recorded for the compound `Fc1ccc2[nH]cc(-c3nc(-c4ccsc4)cs3)c2c1`
OUT: 99.8

IN: Please list growth recorded for the compound `CC[C@H]1OC(=O)[C@H](C)[C@@H](O[C@H]2C[C@@](C)(OC)[C@@H](O)[C@H](C)O2)[C@H](C)[C@@H](O[C@@H]2O[C@H](C)C[C@H](N(C)C)[C@H]2O)[C@](C)(OC)C/C(C)=C2/O[C@@]1(C)C=C2C`
OUT: 64.1

IN: Please list growth recorded for the compound `CS(=O)(=O)c1nccc(-c2c(-c3cccc(OCc4ccc(F)cc4)c3)nc3sccn23)n1`
OUT: 90.2

IN: Please list growth recorded for the compound COc1cc(C2C(C#N)=C(N)Oc3cc(O)ccc32)cc(OC)c1OC (configuration not stated)
OUT: 50.4

IN: Please list growth recorded for the compound `O=C1/C=C/[C@@H](O)[C@@H]2C[C@@H](O)C[C@H]2/C=C/CCC[C@@H](C(F)(F)F)O1`
OUT: 93.9

IN: Please list growth recorded for the compound `O=C(CNc1nnc(-c2cccnc2SCc2ccccc2)s1)Nc1nc(Cl)cc(Cl)n1`
OUT: 91.5

IN: Please list growth recorded for the compound `COc1ccc(-c2n[nH]nc2-c2cc(OC)c3c(c2OC)OCO3)cc1`
OUT: 48.8

IN: Please list growth recorded for the compound `O=C(CN(C1CCCCC1)C1CCCCC1)Nc1ccc(S(=O)(=O)c2ccc(NC(=O)CN(C3CCCCC3)C3CCCCC3)cc2)cc1`
OUT: -7.58

IN: Please list growth recorded for the compound Cc1ccccc1N1C(=O)c2cc(S(N)(=O)=O)c(Cl)cc2NC1C (configuration not stated)
OUT: 106

IN: Please list growth recorded for the compound CC(C)=CCC/C(C)=C/CC/C(C)=C/CC/C=C(\C)CC/C=C(\C)CCC(=O)Nc1ccn(C2OC(CO)C(O)C2(F)F)c(=O)n1 (configuration not stated)
OUT: 19.9

IN: Please list growth recorded for the compound `COc1cc(-c2csc(NC(=O)Nc3cc(C(F)(F)F)cc(C(F)(F)F)c3)n2)cc(OC)c1OC`
OUT: 32.7

IN: Please list growth recorded for the compound `COc1ccc(Cl)cc1Nc1nc(C(F)(F)F)ccc1C(=O)N/N=C/c1cc(OC)c(OC)c(OC)c1`
OUT: 8.43

IN: Please list growth recorded for the compound COc1ccc(C(=O)N2C=Cc3ccccc3C2C#N)cc1 (configuration not stated)
OUT: 99.9

IN: Please list growth recorded for the compound `O=C1/C=C/[C@@H](O)[C@@H]2C[C@@H](O)C[C@H]2/C=C/CCC[C@H](C(F)(F)F)O1`
OUT: 17.9

IN: Please list growth recorded for the compound `Cc1cc(CCNC=O)c(C)c2c1sc1ccccc12`
OUT: 92.5

IN: Please list growth recorded for the compound `CCN(CC)CCN1c2nc3ccccc3cc2Sc2cc3ccccc3nc21`
OUT: 12.2

IN: Please list growth recorded for the compound `CC(=O)Nc1ccc(S(=O)(=O)N/N=C(\C)c2ccc(C)cc2C)cc1`
OUT: 104

IN: Please list growth recorded for the compound `Cc1c(C(N)=O)sc2c1c(=O)n(Cc1ccccc1)c1nnc(-c3ccc(Br)cc3)n21`
OUT: 29.4

IN: Please list growth recorded for the compound `Clc1ccc2c(c1)C(N1CCNCC1)=Nc1ccccc1O2`
OUT: 52.9

IN: Please list growth recorded for the compound COc1ccc(NC(=O)C2CC3C=CC2C3)c([N+](=O)[O-])c1 (configuration not stated)
OUT: 102

IN: Please list growth recorded for the compound `COc1ccc(-c2cc(-c3cc(OC)ccc3OC)nc(N)c2C#N)cc1`
OUT: 40.1

IN: Please list growth recorded for the compound `COc1cc(OC)c2c(=O)c(O)c(-c3ccccc3)oc2c1`
OUT: 66.4

IN: Please list growth recorded for the compound `CS(=O)(=O)c1nccc(-c2c(-c3cccc(OCc4ccccc4)c3)nc3sccn23)n1`
OUT: 97

IN: Please list growth recorded for the compound `COc1ccc2nc3cc(Cl)ccc3c(N)c2c1`
OUT: -85.7

IN: Please list growth recorded for the compound `O=C(Nc1ccccc1)Nc1ncnc2c1ncn2-c1ccccc1`
OUT: 92.5

IN: Please list growth recorded for the compound COc1ccc2c(c1)OC(N)=C(C#N)C2c1cc(OC)c(OC)c(OC)c1 (configuration not stated)
OUT: 22.8

IN: Please list growth recorded for the compound `O=C(Nc1cccc2c1CCCC2)c1cc2ccccc2cc1O`
OUT: 38.2
